System: Aβ-38
Assay: MSD Human (6E10) Ab 3-PLEX elisa, conditioned media of 2B7 cells: Aβ-38
Assay type: cell-based
Conditions: Homo sapiens; Aβ-38 (superscript a); read-out: 50% reduction value
Method: Assays were conducted to determine the ability of a Compound of Formula I to modulate […], and Aβ-38. Plates with capture antibodies were blocked for 1-2 hours at room temperature with 150 μL of the manufactures blocking reagent. […] Final Wash and Readout: • Wash wells 5× with MSD wash buffer • Added 150 μL 2×MSD read buffer • Read with MSD imager. A-Beta peptide levels for each peptide are calculated from the standard curve using the MSD software provided with the MSD 2400 Imager. […]
reportedMetric: IC50

// worked examples, IC50 included
Exercise: Query (compound): CCO[C@@H]([C@H]1C[C@@H](C)[C@H]2[C@H](O1)[C@H](O)[C@@]1(C)C3CC[C@H]4C(C)(C)C(OC(=O)NC5COC5)CC[C@@]45C[C@@]35CC[C@]21C)C(C)(C)O (some centres unmarked) ; field requested: IC50
Key: < 1000 nM

Exercise: Query (compound): C=C(C)CO[C@@H](C1C[C@@H](C)[C@H]2C(O1)[C@H](O)[C@@]1(C)C3CC[C@H]4C(C)(C)C(O)CC[C@@]45C[C@@]35CC[C@]21C)C(C)(C)O (some centres unmarked) ; field requested: IC50
Key: < 1000 nM

Exercise: Query (compound): CC(C)C(=O)N1CCO[C@@H](O[C@H]2CC[C@]34C[C@]35CC[C@]3(C)C6C(OC(CN(C)C(N)=O)C[C@H]6C)[C@H](O)[C@@]3(C)C5CC[C@H]4C2(C)C)C1 (some centres unmarked) ; field requested: IC50
Key: 1000 to 10000 nM

Exercise: Query (compound): CO[C@@H](C1C[C@@H](C)[C@H]2C(O1)[C@H](O)[C@@]1(C)C3CC[C@H]4C(C)(C)C(OC(=O)NC5CNC5)CC[C@@]45C[C@@]35CC[C@]21C)C(C)(C)O (some centres unmarked) ; field requested: IC50
Key: < 1000 nM

Note: attention shifts to another entry.
Exercise: Query (compound): C[C@@H]1CC(CNC(=O)N(C)C)OC2[C@H]1[C@@]1(C)CC[C@@]34C[C@@]35CC[C@H](O)C(C)(C)[C@@H]5CCC4[C@]1(C)[C@H]2O (some centres unmarked) ; field requested: IC50
Key: > 10000 nM

* * *

Examples of compounds with documented IC50 follow.
test system: Aβ-40; assay: MSD Human (6E10) Ab 3-PLEX elisa, conditioned media of 2B7 cells: Aβ-40; assay type: cell-based; conditions: Homo sapiens, Aβ-40 (superscript b); read-out: 50% reduction value

// worked examples, IC50 included
Exercise: Query (compound): CC(C)[C@@H](OC(=O)C1CCC1)C1C[C@@H](C)[C@H]2C(O1)[C@H](O)[C@@]1(C)[C@@H]3CC[C@H]4C(C)(C)C(O)CC[C@@]45C[C@@]35CC[C@]21C (stereo partly shown) ; field requested: IC50
Key: 1 to 10 µM

Exercise: Query (compound): C=C(C)CO[C@@H](C1C[C@@H](C)[C@H]2C(O1)[C@H](O)[C@@]1(C)C3CC[C@H]4C(C)(C)C(O)CC[C@@]45C[C@@]35CC[C@]21C)C(C)(C)O (stereo partly shown) ; field requested: IC50
Key: 1 to 10 µM

Exercise: Query (compound): CCO[C@@H]([C@H]1C[C@@H](C)[C@H]2[C@H](O1)[C@H](O)[C@@]1(C)[C@@H]3CC[C@H]4C(C)(C)[C@@H](OC5CNCCO5)CC[C@@]45C[C@@]35CC[C@]21C)C(C)(C)O (stereo partly shown) ; field requested: IC50
Key: 1 to 10 µM

Exercise: Query (compound): CCO[C@@H]([C@H]1C[C@@H](C)[C@H]2[C@H](O1)[C@H](O)[C@@]1(C)[C@@H]3CC[C@H]4C(C)(C)[C@@H](OC(=O)N5CC(C(=O)O)C5)CC[C@@]45C[C@@]35CC[C@]21C)C(C)(C)O ; field requested: IC50
Key: 1 to 10 µM

Exercise: Query (compound): CC(=O)O[C@@H]([C@H]1C[C@@H](C)C2C(O1)[C@H](O)[C@@]1(C)[C@@H]3CC[C@H]4C(C)(C)[C@@H](OC(=O)c5cccnc5)CC[C@@]45C[C@@]35CC[C@]21C)C(C)(C)O (stereo partly shown) [drawing 1200] ; field requested: IC50
Key: > 10 µM

Exercise: Query (compound): CC(=O)OC(C(C)C)C1C[C@@H](C)[C@H]2C(O1)[C@H](O)[C@@]1(C)C3CC[C@H]4C(C)(C)[C@@H](O[C@H]5CNCCO5)CC[C@@]45C[C@@]35CC[C@]21C (stereo partly shown) ; field requested: IC50
Key: 1 to 10 µM

Exercise: Query (compound): CC(C)[C@@H](OC(=O)N1CCC1)C1C[C@@H](C)[C@H]2C(O1)[C@H](O)[C@@]1(C)C3CC[C@H]4C(C)(C)C(OC(=O)N5CCN(S(C)(=O)=O)CC5)CC[C@@]45C[C@@]35CC[C@]21C (stereo partly shown) ; field requested: IC50
Key: 1 to 10 µM

Exercise: Query (compound): CC(C)CC(=O)O[C@@H](C1C[C@@H](C)[C@H]2C(O1)[C@H](O)[C@@]1(C)[C@@H]3CC[C@H]4C(C)(C)C(O)CC[C@@]45C[C@@]35CC[C@]21C)C(C)(C)O (stereo partly shown) ; field requested: IC50
Key: 1 to 10 µM

Continuing:
Exercise: Query (compound): CCO[C@@H]([C@H]1C[C@@H](C)[C@H]2[C@H](O1)[C@H](O)[C@@]1(C)[C@@H]3CC[C@H]4C(C)(C)[C@@H](OC5CN(C(=O)C(C)C)CCO5)CC[C@@]45C[C@@]35CC[C@]21C)C(C)(C)O (stereo partly shown) ; field requested: IC50
Key: 1 to 10 µM

Exercise: Query (compound): CC(C)OC(C)(C)[C@H](O)C1C[C@@H](C)[C@H]2C(O1)[C@H](O)[C@@]1(C)C3CC[C@H]4C(C)(C)C(O)CC[C@@]45C[C@@]35CC[C@]21C (stereo partly shown) ; field requested: IC50
Key: > 10 µM

* * *

Examples of compounds with documented inhibition at 20 µM follow.
tested on: Aβ-42; assay: MSD Human (6E10) Ab 3-PLEX elisa, conditioned media of 2B7 cells: Aβ-42; assay type: cell-based; settings: Homo sapiens; Aβ-42, 20 μM

// worked examples, inhibition at 20 µM included
Exercise: Enter reported inhibition at 20 µM observed with Aβ-42 for COC(=O)NCC1C[C@@H](C)[C@H]2C(O1)[C@H](O)[C@@]1(C)C3CC[C@H]4C(C)(C)[C@@H](O)CC[C@@]45C[C@@]35CC[C@]21C (stereo partly drawn)
Key: 25 to 75%

Exercise: Enter reported inhibition at 20 µM observed with Aβ-42 for C[C@@H]1CC(CNC(=O)N(C)C)OC2[C@H]1[C@@]1(C)CC[C@@]34C[C@@]35CC[C@H](O)C(C)(C)[C@@H]5CCC4[C@]1(C)[C@H]2O (stereo partly drawn)
Key: < 25%

Note: attention shifts to another entry.
Exercise: Enter reported inhibition at 20 µM observed with Aβ-42 for C[C@@H]1C[C@](C)(CO)OC2[C@H]1[C@@]1(C)CC[C@@]34C[C@@]35CC[C@H](O)C(C)(C)[C@@H]5CCC4[C@]1(C)[C@H]2O (stereo partly drawn)
Key: < 25%

* * *

tested on: Aβ-42; test: MSD Human (6E10) Ab 3-PLEX elisa, conditioned media of 2B7 cells: Aβ-42; type: cell-based; settings: Homo sapiens; Aβ-42, 20 μM
reportedMetric: inhibition at 20 µM

// worked examples, inhibition at 20 µM included
Exercise: Query (molecule): CC(C)C(=O)N1CCO[C@@H](O[C@H]2CC[C@]34C[C@]35CC[C@]3(C)C6C(OC(CN(C)C(=O)N(C)C)C[C@H]6C)[C@H](O)[C@@]3(C)C5CC[C@H]4C2(C)C)C1 (some centres unmarked) ; field requested: inhibition at 20 µM
Key: 25 to 75%

Exercise: Query (molecule): C[C@@H]1CC([C@H]([S+](C)[O-])C(C)(C)O)OC2[C@H]1[C@@]1(C)CC[C@@]34C[C@@]35CCC(O)C(C)(C)[C@@H]5CCC4[C@]1(C)[C@H]2O (some centres unmarked) ; field requested: inhibition at 20 µM
Key: 25 to 75%

Exercise: Query (molecule): C[C@@H]1CC(C(=O)O)OC2C1[C@@]1(C)CC[C@@]34C[C@@]35CC[C@H](OC3CN(C6COC6)CCO3)C(C)(C)[C@@H]5CC[C@H]4[C@]1(C)[C@H]2O (some centres unmarked) ; field requested: inhibition at 20 µM
Key: < 25%

Exercise: Query (molecule): C[C@@H]1CC([C@@H](C(C)(C)O)S(C)(=O)=O)OC2[C@H]1[C@@]1(C)CC[C@@]34C[C@@]35CCC(O)C(C)(C)[C@@H]5CCC4[C@]1(C)[C@H]2O (some centres unmarked) ; field requested: inhibition at 20 µM
Key: 25 to 75%

Continuing:
Exercise: Query (molecule): C[C@@H]1CC([C@H](OC(=O)C2CCOCC2)C(C)(C)O)OC2[C@H]1[C@@]1(C)CC[C@@]34C[C@@]35CC[C@H](O)C(C)(C)[C@@H]5CCC4[C@]1(C)[C@H]2O (some centres unmarked) ; field requested: inhibition at 20 µM
Key: 25 to 75%
